src = patent US12180193B2

biological target: BRAF V600E (Homo sapiens, UniProt P15056, V600E); construct: expressed in transfected cells; experiment: Cellular assay of target protein degradation, T-Rex 293 cells stably transfected with HA-BRAF_V600E (HA immunofluorescence, high content imaging); assay type: cell-based; settings: maximum degradation observed, T-Rex 293 HA-BRAF V600E
Sequence (P15056 whole entry V600E): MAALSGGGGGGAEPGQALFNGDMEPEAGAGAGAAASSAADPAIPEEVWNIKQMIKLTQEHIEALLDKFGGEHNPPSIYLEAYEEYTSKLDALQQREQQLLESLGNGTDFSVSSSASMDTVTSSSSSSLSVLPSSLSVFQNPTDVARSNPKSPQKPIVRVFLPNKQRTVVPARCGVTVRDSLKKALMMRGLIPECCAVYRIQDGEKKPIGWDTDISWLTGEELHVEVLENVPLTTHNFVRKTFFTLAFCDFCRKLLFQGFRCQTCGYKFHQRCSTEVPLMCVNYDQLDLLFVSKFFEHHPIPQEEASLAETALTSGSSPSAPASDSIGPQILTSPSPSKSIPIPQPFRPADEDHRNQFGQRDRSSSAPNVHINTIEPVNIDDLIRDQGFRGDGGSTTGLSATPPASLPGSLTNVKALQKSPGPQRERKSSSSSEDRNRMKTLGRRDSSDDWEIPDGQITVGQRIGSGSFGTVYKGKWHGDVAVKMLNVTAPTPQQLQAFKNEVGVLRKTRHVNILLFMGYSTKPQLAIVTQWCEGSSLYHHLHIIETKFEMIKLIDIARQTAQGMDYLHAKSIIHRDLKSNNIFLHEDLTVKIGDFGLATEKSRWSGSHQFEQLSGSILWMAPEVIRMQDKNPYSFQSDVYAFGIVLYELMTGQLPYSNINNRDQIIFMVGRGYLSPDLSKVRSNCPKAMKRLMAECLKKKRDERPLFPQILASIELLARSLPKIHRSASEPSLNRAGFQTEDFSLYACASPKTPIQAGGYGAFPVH
# Lookup of reported Dmax keyed by entry

# example entries with known answers
COc1c(NS(=O)(=O)N2CC[C@@H](F)C2)ccc(F)c1C(=O)c1c[nH]c2ncc(-c3ccc(N4CCC(CN5CCC(c6ccc7c(c6)CN(C6CCC(=O)NC6=O)C7=O)CC5)CC4)cc3)cc12 (stereo partly drawn); 35 to 70%
COc1cc(N2CCC(CN3CC4(C3)CN(c3ccc(-c5cnc6[nH]cc(C(=O)c7c(F)ccc(NS(=O)(=O)N8CC[C@@H](F)C8)c7F)c6c5)cc3)C4)CC2)cc2c1C(=O)N([C@H]1CCC(=O)NC1=O)C2; < 35%
O=C1CC[C@H](N2Cc3cc(C4CCN(CC5CCN(c6ccc(-c7cnc8[nH]cc(C(=O)c9c(F)ccc(NS(=O)(=O)N%10CC[C@@H](O)C%10)c9F)c8c7)cc6)CC5)CC4)ccc3C2=O)C(=O)N1; 35 to 70%
O=C1CC[C@@H](NC(=O)c2ccc(C3CCN(CC4CCN(c5ccc(-c6cnc7[nH]cc(C(=O)c8c(F)ccc(NS(=O)(=O)N9CC[C@@H](F)C9)c8F)c7c6)cc5)CC4)CC3)cc2F)C(=O)N1; < 35%
O=C1CCC(N2Cc3cc(N4CC(C5CN(CC6CCN(c7ccc(-c8cnc9[nH]cc(C(=O)c%10c(F)ccc(NS(=O)(=O)N%11CC[C@@H](F)C%11)c%10F)c9c8)cc7)CC6)C5)C4)ccc3C2=O)C(=O)N1 (stereo partly drawn); < 35%

**Query** Could you please provide reported Dmax for O=C1CC[C@H](N2Cc3cc(N4CCC(CN5CCN(C6(c7ncc(-c8cnc9[nH]cc(C(=O)c%10c(F)ccc(NS(=O)(=O)N%11CC[C@@H](F)C%11)c%10F)c9c8)cn7)CC6)CC5)CC4)ccc3C2=O)C(=O)N1 ? Thanks!
**Result** < 35%

**Query** Could you please provide reported Dmax for C[C@@]12CN(CC3CCN(c4ccc5c(c4)CN([C@H]4CCC(=O)NC4=O)C5=O)CC3)C[C@@H]1CN(c1ccc(-c3cnc4[nH]cc(C(=O)c5c(F)ccc(NS(=O)(=O)N6CC[C@@H](F)C6)c5F)c4c3)cc1)C2 ? Thanks!
**Result** 35 to 70%

**Query** Could you please provide reported Dmax for O=C1CCC(N2Cc3cc(C4CCN(CC5CCN(c6ncc(-c7cnc8[nH]cc(C(=O)c9c(F)ccc(NS(=O)(=O)N%10CC[C@@H](F)C%10)c9F)c8c7)cn6)CC5)CC4)ccc3C2=O)C(=O)N1 (stereo partly drawn) ? Thanks!
**Result** 35 to 70%

**Query** Could you please provide reported Dmax for O=C1CCC(N2Cc3cc(N4CCCN(CC5CCN(c6ccc(-c7cnc8[nH]cc(C(=O)c9c(F)ccc(NS(=O)(=O)N%10CC[C@@H](F)C%10)c9F)c8c7)cc6)CC5)CC4)ccc3C2=O)C(=O)N1 (stereo partly drawn) ? Thanks!
**Result** < 35%
